Assign IC50 to each entry below.
Target: human recombinant MDH1 (Homo sapiens, UniProt P40925)
Sequence (P40925 whole entry): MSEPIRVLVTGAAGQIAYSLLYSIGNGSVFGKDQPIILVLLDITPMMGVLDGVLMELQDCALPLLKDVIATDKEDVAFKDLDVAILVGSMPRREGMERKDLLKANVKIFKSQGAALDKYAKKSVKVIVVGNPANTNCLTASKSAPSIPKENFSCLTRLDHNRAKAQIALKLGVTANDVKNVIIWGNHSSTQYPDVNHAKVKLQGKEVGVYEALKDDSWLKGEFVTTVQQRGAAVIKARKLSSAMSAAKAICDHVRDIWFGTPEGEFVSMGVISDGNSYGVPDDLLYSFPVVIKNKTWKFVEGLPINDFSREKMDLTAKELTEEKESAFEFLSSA
Assay: MDH1 enzyme activity assay (oxaloacetate-dependent NADH oxidation)
Details: means of three experiments

Any idea what IC50 was measured for `CC(C)(C)CNc1ccc(OCCC(=O)Nc2cccc(OC(F)(F)F)c2)cc1` ?
> 5 µM

Looking for the measured IC50 of O=C(CCOc1ccc2ccccc2c1)Nc1cccc(OC(F)(F)F)c1 [Compound 39a] , can you help?
> 5 µM

Reported IC50 for `CN(CC(C)(C)C)c1ccc(OCCC(=O)Nc2cccc(OC(F)(F)F)c2)cc1` : what is it?
> 5 µM

====

What pIC50 was measured for each of the following?
System: A549 lung cancer cells
Assay: Cell growth inhibition assay (SRB), A549
Type: cell-based
Details: Homo sapiens, means of three experiments, read-out: Cell Viability IC50 A549
pIC50: −log10 of the molar value.

Item O=C(CCOc1ccc(-c2ccccc2)cc1)Nc1cccc(OC(F)(F)F)c1 [Compound 35a] with A549 lung cancer cells - pIC50?
< 5.00

Find the measured pIC50: item O=C(CCOc1ccc(-c2ccc(F)cc2)cc1)Nc1cccc(OC(F)(F)F)c1 [Compound 35b] , target or system A549 lung cancer cells.
< 5.00

Please state recorded pIC50 (tested on A549 lung cancer cells) of `CN(CC(C)(C)C)c1ccc(OCCC(=O)Nc2cccc(OC(F)(F)F)c2)cc1`
< 5.00

Test system A549 lung cancer cells; read-out pIC50; what value for CC(=O)N(CCC(=O)Nc1cccc(OC(F)(F)F)c1)c1ccc(C(C)(C)CC(C)(C)C)cc1 [Compound 57d] ?
< 4.70

# value lookup — system A549 lung cancer cells, readout pIC50, item O=C(CCOc1ccc2ccccc2c1)Nc1cccc(OC(F)(F)F)c1 [Compound 39a]
< 4.70

Entry `CC(C)(C)CC(C)(C)c1ccc(N2CCN(C(=O)c3cccc(OC(F)(F)F)c3)CC2)cc1` , system A549 lung cancer cells: what pIC50 was measured?
< 4.70

Param readout= pIC50; system= A549 lung cancer cells; entry= O=C(CCOc1ccc2cc(F)ccc2c1)Nc1cccc(OC(F)(F)F)c1 [Compound 39d] ; returns value.
< 4.70

Notebook: pull reported pIC50 for A549 lung cancer cells, entry `CC(C)(C)CC(C)(C)c1ccc(OCCC(=O)Nc2ccccc2OC(F)(F)F)cc1`
< 5.00

Record lookup: for A549 lung cancer cells, what pIC50 belongs to `CC(C)(C)CNc1ccc(OCCC(=O)Nc2cccc(OC(F)(F)F)c2)cc1` ?
< 5.00

====

Target: human recombinant MDH2 (Homo sapiens, UniProt P40926)
Sequence (P40926 25-338): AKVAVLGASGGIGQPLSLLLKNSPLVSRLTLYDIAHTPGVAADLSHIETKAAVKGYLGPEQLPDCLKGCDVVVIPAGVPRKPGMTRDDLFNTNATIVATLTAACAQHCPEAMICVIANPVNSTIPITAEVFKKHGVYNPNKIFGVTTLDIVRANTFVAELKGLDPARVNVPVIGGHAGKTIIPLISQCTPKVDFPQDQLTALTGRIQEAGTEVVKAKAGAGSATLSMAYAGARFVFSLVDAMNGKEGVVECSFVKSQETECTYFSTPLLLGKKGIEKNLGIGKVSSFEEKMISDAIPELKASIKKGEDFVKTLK
Test: MDH2 enzyme activity assay (oxaloacetate-dependent NADH oxidation)
Conditions: means of three experiments
pIC50: −log10 of the molar value.
Consider the following molecules; for each one, report its pIC50.

Data request, read-out pIC50, for `CC(C)(O)CC(C)(C)c1ccc(OCCC(=O)Nc2cccc(OC(F)(F)F)c2)cc1`
< 5.30

Any idea what its pIC50 is? The molecule is O=C(CCOc1ccc(-c2ccc(F)cc2)cc1)Nc1cccc(OC(F)(F)F)c1 [Compound 35b]
< 5.30

// query pIC50 value for entry O=C(CCOc1ccc2ccccc2c1)Nc1cccc(OC(F)(F)F)c1 [Compound 39a]
< 5.30

// query pIC50 value for entry `CC(C)(C)CNc1ccc(OCCC(=O)Nc2cccc(OC(F)(F)F)c2)cc1`
< 5.30

Which pIC50 is reported for this molecule? CC(C)(C)CC(C)(C)c1ccc(OCCNS(=O)(=O)c2cccc(OC(F)(F)F)c2)cc1 [Compound 44b]
< 5.30

Find the recorded pIC50 belonging to `CC(C)(C)CC(C)(C)c1ccc(N2CCN(C(=O)c3cccc(OC(F)(F)F)c3)CC2)cc1` and report it.
< 5.30

I have this molecule here, CC(=O)N(CCC(=O)Nc1cccc(OC(F)(F)F)c1)c1ccc(C(C)(C)CC(C)(C)C)cc1 [Compound 57d] , and I need its recorded pIC50.
< 5.30

Look at this molecule and give its reported pIC50. O=C(CCOc1ccc2ccc(Br)cc2c1)Nc1cccc(OC(F)(F)F)c1 [Compound 39b]
< 5.30

Value lookup for pIC50; key = O=C(CCOc1ccc2cc(Br)ccc2c1)Nc1cccc(OC(F)(F)F)c1 [Compound 39c]
< 5.30

# query: pIC50 of entry `CC(C)(C)CC(C)(C)c1ccc(OCCC(=O)Nc2cccc(OC(F)(F)F)c2)cc1`
5.91

So what does the record say about pIC50 for CN(CCC(=O)Nc1cccc(OC(F)(F)F)c1)c1ccc(C(C)(C)CC(C)(C)C)cc1 [Compound 57a] ?
5.81

Look up pIC50: CC(C)(C)CC(C)(C)c1ccc(N(CCC(=O)Nc2cccc(OC(F)(F)F)c2)C2CCC2)cc1 [Compound 57c]
5.93
